test.target: T1, TDRD7 L1 (Mus musculus, UniProt Q8K1H1 3-76)
T1 sequence: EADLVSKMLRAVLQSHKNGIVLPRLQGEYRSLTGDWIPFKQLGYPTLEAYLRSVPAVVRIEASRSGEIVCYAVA
experiment.notes: ELISA
parameter: binding result

- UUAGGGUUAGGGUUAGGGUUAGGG (structured_RNA) [TERRA G4 RNA]: binds
- UUACCGUUACCGUUACCGUUACCG (ssRNA) [TERRA G4 mut RNA]: no binding
- GGUCCGCAGCCGAGUCCGGGUCCG (ssRNA) [Cluster G4-1 mut RNA]: no binding
- GGUGGGCAGGGGAGUGGGGGUGGG (structured_RNA) [Cluster G4-1 RNA]: binds
